TARGET UNDER TEST: mouse BLyS protein (mouse, UniProt Q9WU72 69-309)
Sequence (Q9WU72 69-309): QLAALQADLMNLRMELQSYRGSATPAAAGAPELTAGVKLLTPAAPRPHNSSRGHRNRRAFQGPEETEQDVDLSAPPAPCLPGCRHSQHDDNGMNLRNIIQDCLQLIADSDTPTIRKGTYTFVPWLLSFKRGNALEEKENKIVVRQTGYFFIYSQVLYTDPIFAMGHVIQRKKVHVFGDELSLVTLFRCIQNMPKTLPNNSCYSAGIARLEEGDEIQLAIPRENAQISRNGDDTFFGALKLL
TEST METHOD NOTES: cell-based or functional assay
In this section, each of the binders is paired with its reported mouse B lymphocyte proliferation (OD450 nm), antibody 0.8 nM.

BINDER: 20D1B6E9E5 (antibody, V domains shown, Mouse hybridoma monoclonal antibody purified on Protein G) VH: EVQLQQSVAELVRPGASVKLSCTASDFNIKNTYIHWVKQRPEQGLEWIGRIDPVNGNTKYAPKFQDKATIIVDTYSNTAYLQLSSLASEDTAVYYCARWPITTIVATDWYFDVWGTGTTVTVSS VL: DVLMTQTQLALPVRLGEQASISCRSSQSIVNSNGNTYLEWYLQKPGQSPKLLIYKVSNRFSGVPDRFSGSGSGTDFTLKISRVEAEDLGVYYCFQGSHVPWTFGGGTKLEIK
MEAS VALUE: 2480 OD450 nm

BINDER: L1D12 (antibody, V domains shown, From a human naive scFv phage library; also called human BLyS antibody L1D12; LID12) VH: QVQLVQSGGGLVQPGGSLRLSCAASGFTVSSNYMSWVRQAPGKGLEWVSVIYSGGSTYYADSVKGRFTISRDNSKNTLYLQMNSLRAEDTAVYYCARGFHDILTGYGMDVWGQGTTVTVSS VL: SSELTQDPAVSVALGQTVRITCQGDSLRNYYAGWYQQKPGQAPVLVIYGKNNRPSGIPDRFSGSSSGNTASLTITGTQAEDEADYYCSSRDNSGTHLVEFGGGTKLTVL
MEAS VALUE: 2410 OD450 nm

Let's switch to this binder now.
# get_value(readout='mouse B lymphocyte proliferation (OD450 nm), antibody 0.8 nM', item= 8E7D9C7F5 (antibody, V domains shown, Mouse hybridoma monoclonal antibody purified on Protein G) VH: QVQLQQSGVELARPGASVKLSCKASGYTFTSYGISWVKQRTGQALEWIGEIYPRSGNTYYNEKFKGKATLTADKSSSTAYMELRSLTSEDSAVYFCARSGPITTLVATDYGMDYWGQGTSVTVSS VL: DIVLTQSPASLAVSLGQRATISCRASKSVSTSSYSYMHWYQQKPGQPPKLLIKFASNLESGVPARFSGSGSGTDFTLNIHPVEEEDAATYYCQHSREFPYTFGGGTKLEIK )
2300 OD450 nm
